Where do the numbers come from? From PubChem BioAssay AID738.

# ASSAY_OVERVIEW: growth inhibition of yeast control strain, primary screen, counter-screen for post-Golgi transport modulator project (AID 738)
# MEASUREMENT_PARAMETERS: efflux-deficient yeast background strain, growth absorbance A615, 16 h; at 10 µM
The campaign covered roughly 98,000 compounds. About 4,900 (5%) were called active. Rule as the data show it: active = inhibition above about 30%; inactive = the rest. What follows is part of a selection rich in actives, with near analogues and random picks from the rest.
Returns: one label drawn from class 1 for active, class 0 for inactive

Past entries and their recorded results:
O=C(Cc1ccccc1)N/N=C/c1ccc(Cl)cc1Cl: class 0
O=C(Nc1ccc(Cl)cn1)Nc1cccs1: class 0
CC1(C)Cc2ccccc2-c2nc(CN3CCOCC3)[nH]c(=O)c21: class 0
COCc1cc(C)nc2sc(C(=O)NC3CCCCC3)c(N)c12: class 0
Cc1[nH]n(-c2cccc(Cl)c2)c(=O)c1/C=N/n1c(C)nc2ccccc2c1=O: class 0

Enquiry: // param item: `c1ccc(Nc2nc(-c3ccncc3)cs2)nc1` ; yields the recorded call
Return: class 0

Enquiry: // param item: `COc1ccccc1-c1n[nH]c2c1[C@H](C)CC[C@H]2C(C)C` ; yields the recorded call
Return: class 1

Enquiry: // param item: `Clc1ccc(Nc2nc(-c3cccs3)cs2)nc1` ; yields the recorded call
Return: class 1

Enquiry: // param item: `Cc1[nH]n(-c2cccc(Cl)c2)c(=O)c1-c1ccc(Cl)cc1` ; yields the recorded call
Return: class 1

Enquiry: // param item: `CCC1(CC)Cc2ccccc2-c2nc3ccccc3c(=O)n21` ; yields the recorded call
Return: class 0

Enquiry: // param item: `CSCc1cc(N(C)C)nc(SCc2ccc(Cl)cc2Cl)n1` ; yields the recorded call
Return: class 0

Enquiry: // param item: `O=c1[nH]n(-c2cccc(Cl)c2)c2ncccc12` ; yields the recorded call
Return: class 0

###

inhibition overview
# ASSAY_OVERVIEW: growth inhibition of yeast control strain, primary screen, counter-screen for post-Golgi transport modulator project (AID 738)
# MEASUREMENT_PARAMETERS: efflux-deficient yeast background strain, growth absorbance A615, 16 h; at 10 µM; stronger effect = higher value
The campaign covered roughly 98,000 compounds. About 4,900 (5%) were called active. The list comes from a sample in which actives are over-represented; it also holds close analogues and randomly drawn compounds.
Please give a number only; it is taken to be in %.

O=C(Nc1ccc2ccccc2c1)Nc1ccc2snnc2c1: 67.9
COc1ccc(NC(=O)Nc2ccc3nsnc3c2)cc1: -5.25
NC(N)=N/N=C/c1ccc(OCc2ccc(Cl)cc2Cl)cc1: 67.2
CC(C)NC(=O)c1ccc(Sc2ccccc2)c([N+](=O)[O-])c1: -2.82
NC(=O)COc1ccc(/C=N/NC(=O)C2CCCN2S(=O)(=O)c2ccc(Cl)cc2)cc1 (centres undefined): 18.9
COc1ccccc1N1CCN(C(=O)c2ccc(S(=O)(=O)N3CCCCC3)cc2)CC1: -0.79
CSCc1cc(N2CCOCC2)nc(SCc2ccc(Cl)cc2Cl)n1: 7.94
COc1ccc(NC(=O)Nc2ccc3nc(C)c(C)nc3c2)cc1: 8.79

We next turn to a different molecule, shown below.
Lab book: inhibition of `Cc1ccc(C(=O)Nc2c(C#N)c(C)c(C)n2Cc2ccccc2)cc1` noted as 17.1

###

# ASSAY_OVERVIEW: growth inhibition of yeast control strain, primary screen, counter-screen for post-Golgi transport modulator project (AID 738)
# MEASUREMENT_PARAMETERS: efflux-deficient yeast background strain, growth absorbance A615, 16 h; at 10 µM; stronger effect = higher value
Screen size: about 98,000 compounds; about 4,900 (5%) were called active. The sample holds actives, similar compounds and a random draw of the others, so the mix is not that of the screen.
READOUT_TYPE: inhibition (%)
Please give a number only; it is taken to be in %.

O=S(=O)(c1ccc(F)cc1)n1ccc(-c2cnc(-c3ccccc3)s2)n1: 6.8
COc1cc(NS(=O)(=O)c2ccc(N/C=C(\C=O)c3nc4cc(Cl)ccc4o3)cc2)nc(OC)n1: -2.08
CC12c3ccccc3C(c3ccccc31)C1C(=O)N(Cc3cccnc3)C(=O)C12 (stereo not given): 4.53
O=C(Nc1ccn(Cc2ccccc2F)n1)c1ccc(COc2ccc(Cl)cc2Cl)o1: 27.6

We next turn to a different compound, shown below.
Lab book: inhibition of Cc1cccc(N(C(=O)Cc2cccs2)C(C(=O)NC2CCCC2)c2ccsc2)c1 (stereo not given) noted as 2.59

###

# ASSAY_OVERVIEW: growth inhibition of yeast control strain, primary screen, counter-screen for post-Golgi transport modulator project (AID 738)
# MEASUREMENT_PARAMETERS: efflux-deficient yeast background strain, growth absorbance A615, 16 h; at 10 µM
The whole screen tested about 98,000 compounds, of which about 4,900 (5%) were called active. No stated cut-off is given here; in the data, active means inhibition above about 30%; inactive means the rest. Shown is part of a subset that was picked to be rich in actives.
Returns: one label drawn from Y for active, N for inactive

Past entries and their recorded results:
O=c1c2ccccc2nc2n1C(CSCc1ccccc1)CS2 (stereo unspecified): N
Cc1ccc2cccc(S(=O)(=O)N3CCN(c4ccccc4F)CC3)c2n1: Y
CCCSc1nc2c(c(=O)n(C)c(=O)n2C)n1Cc1ccc(C)cc1: Y
Cc1ccsc1C(C(=O)NC1CCCCC1)N(C(=O)Cc1cccs1)C1CC1 (stereo unspecified): Y
COc1ccc2c(c1)CCc1c(C(=O)N3CCCC3)noc1-2: N

Enquiry: // param item: `CCOc1ccc(Cn2c(SCCCCC#N)nc3c2c(=O)n(C)c(=O)n3C)cc1OCC` ; yields the recorded call
Return: N

Enquiry: // param item: `CC(C)=CC(=O)Nc1nnc(-c2ccc(F)cc2)s1` ; yields the recorded call
Return: N

Enquiry: // param item: `Cc1cccc(Cn2c(SCCO)nc3c2c(=O)n(C)c(=O)n3C)c1` ; yields the recorded call
Return: N

Enquiry: // param item: `N#CC1=C(N)N(c2ccc(F)cc2)C(=O)C1` ; yields the recorded call
Return: N

Enquiry: // param item: `O=S(=O)(N1CCOCC1)N1CCN(c2ccccc2F)CC1` ; yields the recorded call
Return: N

Enquiry: // param item: `CCN(CC)C(=O)CCC(=O)Nc1ccc(C(=O)OC)cc1` ; yields the recorded call
Return: N

###

# ASSAY_OVERVIEW: growth inhibition of yeast control strain, primary screen, counter-screen for post-Golgi transport modulator project (AID 738)
# MEASUREMENT_PARAMETERS: efflux-deficient yeast background strain, growth absorbance A615, 16 h; at 10 µM
Out of some 98,000 compounds screened, about 4,900 (5%) were called active. Cut-off read from the data, not from the text of the source: active = inhibition above about 30%; inactive = the rest. The list comes from a sample in which actives are over-represented; it also holds close analogues and randomly drawn compounds.
Returns: one label drawn from active, inactive

CC(=O)c1ccc2c(c1)c1ccccc1n2CC(C)C: inactive
O=C(CSc1nnc(-c2cccs2)n1Cc1ccccc1)N1CCc2ccccc2C1: active
CCOc1ccc(CNC(=O)C2CCC(=O)N2C2CCCC2)cc1OC (centres undefined): inactive

Enquiry: // param item: `Cc1ccc(C(=O)N/C(=C/C=C/c2ccccc2)C(=O)NCc2ccco2)cc1` ; yields the recorded call
Return: inactive

Enquiry: // param item: CS(=O)(=O)N(CC(O)Cn1c2ccccc2c2ccccc21)c1cccc2ccccc12 (centres undefined) ; yields the recorded call
Return: active

Enquiry: // param item: CCC(C)(C)n1nnnc1C(c1cccs1)N1CCN(Cc2ccccc2)CC1 (centres undefined) ; yields the recorded call
Return: inactive

Enquiry: // param item: Cc1cc2c(c(=O)n1C)C(C(C)C)C(C#N)=C(N)O2 (centres undefined) ; yields the recorded call
Return: inactive

Enquiry: // param item: CC(=O)N1Cc2ccccc2CC1C(=O)O (centres undefined) ; yields the recorded call
Return: inactive

###

inhibition overview
# ASSAY_OVERVIEW: growth inhibition of yeast control strain, primary screen, counter-screen for post-Golgi transport modulator project (AID 738)
# MEASUREMENT_PARAMETERS: efflux-deficient yeast background strain, growth absorbance A615, 16 h; at 10 µM; stronger effect = higher value
In all, about 98,000 compounds went through this assay and about 4,900 (5%) were called active. The sample holds actives, similar compounds and a random draw of the others, so the mix is not that of the screen.
Please give a number only; it is taken to be in %.

Worked cases, answers included:
Cc1cccc2cc(CN(Cc3cccs3)C(c3nnnn3C3CCCC3)C(C)C)c(=O)[nH]c12 (configuration not stated): 23
COc1ccc(N2CCN(Cc3ccc(Br)s3)CC2)cc1: 1.68
CCCn1nc2cc(C(=O)NCc3ccccc3)ccc2c1OCC: -6.87
Cc1nc(-c2ccccc2)sc1-c1nc(-c2ccccc2)ncc1S(=O)(=O)c1ccccc1: 12
COc1ccc(-c2n[nH]c(C)c2-c2ccc(OC)c(OC)c2)c(O)c1: 15
C=C(C)COc1ccc(-c2n[nH]c(C)c2-c2ccccc2OC)c(O)c1: 7.96

Lab book: inhibition of CCC(c1nnnn1Cc1ccco1)N(Cc1cc2cc(OC)ccc2[nH]c1=O)C1CCCCC1 (configuration not stated) noted as 29.9

Lab book: inhibition of `Cc1nnc(NC(=O)Cn2c(=O)sc3ccccc32)s1` noted as -3.03

Lab book: inhibition of `Cc1ccc(C(=O)N2CCN(C(=O)N3CCOCC3)CC2)cc1` noted as -1.43

Lab book: inhibition of `CSc1nc2ccccc2cc1/C=C(\C#N)c1ccc(Cl)cc1Cl` noted as 24.2

Lab book: inhibition of CCC(c1nnnn1Cc1ccco1)N(CCc1ccccc1)Cc1cc2cccc(C)c2[nH]c1=O (configuration not stated) noted as 52.5

Lab book: inhibition of `N#Cc1nc(-c2ccc(OCc3ccccc3)cc2)oc1NCCCN1CCOCC1` noted as 14.1

Lab book: inhibition of `COc1ccc(-c2nnc(SCC(=O)NC3CCCCC3)o2)cc1OC` noted as -2.95

Lab book: inhibition of `O=C(CN1C(=O)NC(Cc2ccccc2)(Cc2ccccc2)C1=O)NCC1CCCCC1` noted as 16.1

Lab book: inhibition of `O=C(CSc1nc(-c2ccco2)cc(C(F)(F)F)n1)NCc1cccs1` noted as 8.94

Lab book: inhibition of `C=C(C)COc1ccc(-c2n[nH]c(C)c2-c2ccccc2)c(O)c1` noted as 34.8

Lab book: inhibition of CCOC(=O)N1CCN(c2c(NCCCN3CCCC(C)C3)c(=O)c2=O)CC1 (configuration not stated) noted as -0.16

Lab book: inhibition of `COc1ccc(N2CCN(Cc3cc(=O)oc4ccc5ccccc5c34)CC2)cc1` noted as 31

Lab book: inhibition of `N#Cc1nc(COc2ccc(-c3ccccc3)cc2)oc1NCc1cccnc1` noted as 94.2

Lab book: inhibition of `CSc1ccc(-c2c(C#N)c(N)nc3c2c(C)nn3-c2ccccc2)cc1` noted as 2.79

Lab book: inhibition of Cc1ccc(/C=N/NC(=O)C(NC(=O)c2ccccc2)c2n[nH]c(=O)c3ccccc23)cc1 (configuration not stated) noted as 13.9

Lab book: inhibition of `COc1cc(OC)c(C(=O)NC2CCCCCC2)cc1OC` noted as 46.5
